Test: Brain concentration in male mouse after 30 min intravenous administration
Type: ADME
Observation Type: concentration at 0.5 h
Don't forget the unit after the number, please.

Give its concentration at 0.5 h value. Item: CN1C(=O)NC(Cc2c[nH]c3c(Cl)cccc23)C1=O (stereo unspecified)
740 nM

---

Assay: Clearance value in female mouse upon intravenous administration
Type: ADME, organism-based
Details: in vivo, read-out: CLs
Observation Type: clearance (mL/min/kg)
Answer with a number only, understood to be in mL/min/kg.

# query: clearance of entry CN1C(=O)NC(Cc2c[nH]c3c(Cl)cccc23)C1=O (stereo unspecified)
100

---

Experiment: Plasma concentration in male mouse after 180 min intravenous administration
Assay type: ADME
Observation Type: concentration at 3 h (nM)
Express it in nM; write the number only.

// lookup concentration at 3 h for CN1C(=O)NC(Cc2c[nH]c3c(Cl)cccc23)C1=O (stereo unspecified)
3

Data origin: ChEMBL document CHEMBL1143645
